assay: in vivo; conditions: Sprague-Dawley, rat
Description: Half life period in SD rats
measurement-name: half-life (h)
Unit h implied. Number only.

Documented half-life of CCCc1ccccc1OCCCOc1cccc(C2OC(=O)NC2=O)c1 (stereo unspecified) : 3.6

====

target: Peroxisome proliferator-activated receptor delta (Homo sapiens, UniProt Q03181)
Sequence (Q03181 whole entry): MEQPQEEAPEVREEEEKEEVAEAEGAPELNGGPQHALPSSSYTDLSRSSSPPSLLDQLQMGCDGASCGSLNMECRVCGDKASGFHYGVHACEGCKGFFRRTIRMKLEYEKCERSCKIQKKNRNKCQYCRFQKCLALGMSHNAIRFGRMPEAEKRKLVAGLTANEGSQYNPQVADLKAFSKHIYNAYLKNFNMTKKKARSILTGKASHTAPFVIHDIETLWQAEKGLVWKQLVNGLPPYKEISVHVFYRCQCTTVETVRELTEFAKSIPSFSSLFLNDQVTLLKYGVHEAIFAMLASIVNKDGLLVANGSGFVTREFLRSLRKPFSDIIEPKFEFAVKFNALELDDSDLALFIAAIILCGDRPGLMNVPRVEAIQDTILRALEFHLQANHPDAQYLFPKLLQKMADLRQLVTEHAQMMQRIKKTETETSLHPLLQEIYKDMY
measurement-name: IC50

Examples with their reported IC50 follow.
{"columns": ["molecule", "observed-value"],
 "data": [
  ["CCCc1cc(C(=O)c2ccccc2)ccc1OCCCOc1cccc(C2SC(=O)NC2=O)c1 (stereo not given)", "170 nM"],
  ["CCCc1cc(CC2CCCCC2)ccc1OCCCOc1cccc(C2SC(=O)NC2=O)c1 (stereo not given)", "> 50000 nM"],
  ["CCCc1cc(OC2CCCCC2)ccc1OCCCOc1cccc(C2SC(=O)NC2=O)c1 (stereo not given)", "> 50000 nM"],
  ["CCCc1ccccc1OCCCOc1cccc(C2OC(=O)NC2=O)c1 (stereo not given)", "> 5000 nM"]
]}

Turning to the following molecule.
IC50 reported for this molecule CCCc1cc(OC2CCCC2)ccc1OCCCOc1cccc(C2SC(=O)NC2=O)c1 (stereo not given) : 920 nM

====

biological target: Peroxisome proliferator-activated receptor alpha (Homo sapiens, UniProt Q07869)
Sequence (Q07869 whole entry): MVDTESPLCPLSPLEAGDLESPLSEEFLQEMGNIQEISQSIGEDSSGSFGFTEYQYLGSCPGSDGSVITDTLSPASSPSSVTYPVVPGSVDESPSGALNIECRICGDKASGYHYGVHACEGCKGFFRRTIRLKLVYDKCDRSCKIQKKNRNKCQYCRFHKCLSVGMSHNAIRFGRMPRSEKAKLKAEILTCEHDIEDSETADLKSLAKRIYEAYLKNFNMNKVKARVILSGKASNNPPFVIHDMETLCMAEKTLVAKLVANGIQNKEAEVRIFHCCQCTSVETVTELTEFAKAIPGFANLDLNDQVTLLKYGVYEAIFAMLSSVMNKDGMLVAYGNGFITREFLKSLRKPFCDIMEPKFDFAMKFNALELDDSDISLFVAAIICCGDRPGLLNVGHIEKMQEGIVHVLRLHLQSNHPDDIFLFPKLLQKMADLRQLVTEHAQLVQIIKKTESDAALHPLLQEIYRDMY
measurement-name: pEC50
Notebook: values listed as pEC50 are -log10 of the concentration (mol/L).

pEC50 in this record for CCCc1ccccc1OCCCOc1cccc(C2OC(=O)NC2=O)c1 (stereo unspecified) : 7.28

====

assay: in vivo; details: Sprague-Dawley, rat, po, 2 mg/kg
Description: Clearance in Sprague-Dawley rats after 2mg/kg oral dose
measurement-name: CL/F (mL/min/kg)
Answer format: numeric, mL/min/kg implied, no suffix.

Consider CCCc1cc(C(=O)C2CCCCC2)ccc1OCCCOc1cccc(C2SC(=O)NC2=O)c1 (stereo unspecified) . Its measured CL/F is 29.5

====

assay: in vivo; settings: Sprague-Dawley, rat, po
Description: Oral bioavailability in rat (Sprague-Dawley)
Property: bioavailability; scope: individual compounds
A number alone suffices; assume %.

In the examples that follow, each entry is paired with its recorded bioavailability.
{"columns": ["compound", "observed-value"],
 "data": [
  ["CCCc1cc(C(=O)C2CCCCC2)ccc1OCCCOc1cccc(C2SC(=O)NC2=O)c1 (stereo not drawn)", 7.8],
  ["CCCc1ccccc1OCCCOc1cccc(C2OC(=O)NC2=O)c1 (stereo not drawn)", 27]
]}

Read the next record carefully.
Lookup result for CCCc1cc(OC2CCCCC2)ccc1OCCCOc1cccc(C2SC(=O)NC2=O)c1 (stereo not drawn) ; measured bioavailability: 10
